Value source: ChEMBL document CHEMBL1145924

molecular target: Histamine H2 receptor (Cavia porcellus); test: Tested for inhibition of histamine H2 receptor-induced rise in heart rate in guinea pig right atrium in the presence of mepyramine at a concentration of 0.3 micro M; assay type: tissue-based, Cardiac atrium
Sequence (P47747 whole entry): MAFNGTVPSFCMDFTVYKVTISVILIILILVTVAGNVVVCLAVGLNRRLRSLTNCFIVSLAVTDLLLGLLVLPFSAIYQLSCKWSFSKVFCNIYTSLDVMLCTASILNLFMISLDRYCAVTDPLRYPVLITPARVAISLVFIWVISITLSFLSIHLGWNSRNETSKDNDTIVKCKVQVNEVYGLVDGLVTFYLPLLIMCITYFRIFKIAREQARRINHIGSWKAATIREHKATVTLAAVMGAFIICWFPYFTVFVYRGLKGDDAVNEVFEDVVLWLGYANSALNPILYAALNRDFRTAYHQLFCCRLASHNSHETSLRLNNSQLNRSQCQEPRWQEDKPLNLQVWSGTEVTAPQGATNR
Endpoint name: pEC50
Numbers only, as −log10 of the molar value.

I am curious: what pEC50 value has been reported for c1ccc(C(CCc2nc(CCNCCc3cnc[nH]3)c[nH]2)c2ccccc2)cc1 ?
5.00

###

For each of the compounds below, state its Emax.
target: Histamine H1 receptor (Cavia porcellus) (UniProt P31389); assay: Maximum response (E max) against histamine H1 receptor in guinea pig ileum; format: tissue-based
Sequence (P31389 whole entry): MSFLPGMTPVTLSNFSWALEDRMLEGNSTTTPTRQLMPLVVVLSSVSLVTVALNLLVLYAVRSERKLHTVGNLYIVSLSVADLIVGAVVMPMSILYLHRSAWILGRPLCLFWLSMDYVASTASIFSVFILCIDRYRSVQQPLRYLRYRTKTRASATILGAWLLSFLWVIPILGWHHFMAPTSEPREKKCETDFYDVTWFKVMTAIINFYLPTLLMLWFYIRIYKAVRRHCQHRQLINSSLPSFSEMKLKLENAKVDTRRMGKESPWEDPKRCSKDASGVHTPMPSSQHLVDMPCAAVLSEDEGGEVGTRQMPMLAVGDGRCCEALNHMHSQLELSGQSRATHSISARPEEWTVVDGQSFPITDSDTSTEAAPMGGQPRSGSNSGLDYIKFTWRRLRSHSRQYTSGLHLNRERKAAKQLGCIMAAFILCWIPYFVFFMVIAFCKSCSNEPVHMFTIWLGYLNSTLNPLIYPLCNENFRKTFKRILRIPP
One number for each entry, in %.

The following compounds have reported results that may help.
{"Entry smiles": "c1ccc(C(CCc2nc(CCNCCCCCc3cccnc3)c[nH]2)c2ccccc2)cc1", "System tested": "Histamine H1 receptor (Cavia porcellus) (UniProt P31389)", "Emax, %": 84}
{"Entry smiles": "c1ccc(C(CCc2nc(CCNCCc3ccncc3)c[nH]2)c2ccccc2)cc1", "System tested": "Histamine H1 receptor (Cavia porcellus) (UniProt P31389)", "Emax, %": 78}

API: the following record is the query input.
I am curious: what Emax value has been reported for c1ccc(C(CCc2nc(CCNCCCc3ccncc3)c[nH]2)c2ccccc2)cc1 ?
48

###

For each of the molecules below, state its Concentration.
target: Histamine H1 receptor (Cavia porcellus) (UniProt P31389); assay: Concentration required for agonistic activity against histamine in guinea pig ileum; type: functional, tissue-based
One number for each entry, in µM.

{"Entry smiles": "c1ccc(C(CCc2nc(CCNCCCc3c[nH]cn3)c[nH]2)c2ccccc2)cc1", "Quantity unit": "µM", "Concentration": 0.1}

Batch request: Concentration for each of the following molecules.
1. c1ccc(C(CCc2nc(CCNCCCCc3ccncc3)c[nH]2)c2ccccc2)cc1
2. c1ccc(C(CCc2nc(CCNCCCCCc3ccncc3)c[nH]2)c2ccccc2)cc1

[10, 10]

Batch request: Concentration for each of the following molecules.
1. c1ccc(C(CCc2nc(CCNCCc3ccccn3)c[nH]2)c2ccccc2)cc1
2. c1ccc(C(CCc2nc(CCNCCCCc3ccccn3)c[nH]2)c2ccccc2)cc1
3. c1ccc(C(CCc2nc(CCNCCCCCc3cccnc3)c[nH]2)c2ccccc2)cc1
4. c1ccc(C(CCc2nc(CCNCCc3ccncc3)c[nH]2)c2ccccc2)cc1

1. 10
2. 3
3. 3
4. 10
